The following molecules are shown together with reported MIC values.
Tested on: Pseudomonas aeruginosa PA0200 MexAB-oprM KO
Assay: In vitro MIC, Pseudomonas aeruginosa PA0200 MexAB-oprM KO
Format: cell-based
Conditions: PAO1, read-out: MIC Pseudomonas aeruginosa PA0200 MexAB-oprM KO

# example entries with known answers
{"Molecule": "CC(C)(O/N=C(\\C(=O)N[C@H]1CN(C(=O)NS(=O)(=O)n2nc(-c3cc(=O)c(O)c[nH]3)n(CC(O)CO)c2=O)C1=O)c1csc(N)n1)C(=O)O (some centres unmarked)", "Measurement kind": "MIC", "Assay result": "250 µg/mL"}
{"Molecule": "CC(C)(O/N=C(\\C(=O)N[C@H]1CN(C(=O)NS(=O)(=O)n2nc(-c3cc(=O)c(O)c[nH]3)n(CCN3CCCC3)c2=O)C1=O)c1csc(N)n1)C(=O)O", "Measurement kind": "MIC", "Assay result": "16000 µg/mL"}
{"Molecule": "CCn1c(-c2cc(=O)c(O)c[nH]2)nn(S(=O)(=O)NC(=O)N2C[C@H](NC(=O)C(=NOC(C)(C)C(=O)O)c3csc(N)n3)C2=O)c1=O (stereo in doubt)", "Measurement kind": "MIC", "Assay result": "< 62.5 µg/mL"}
{"Molecule": "CN(C)CCn1c(-c2cc(=O)c(O)c[nH]2)nn(S(=O)(=O)NC(=O)N2C[C@H](NC(=O)/C(=N\\OC(C)(C)C(=O)O)c3csc(N)n3)C2=O)c1=O", "Measurement kind": "MIC", "Assay result": "188 µg/mL"}

Asked: # returns recorded MIC (system: Pseudomonas aeruginosa PA0200 MexAB-oprM KO) for CCCn1c(-c2cc(=O)c(O)c[nH]2)nn(S(=O)(=O)NC(=O)N2C[C@H](NC(=O)/C(=N\OC(C)(C)C(=O)O)c3csc(N)n3)C2=O)c1=O
Given back: < 62.5 µg/mL

====

The following molecules are shown together with reported MIC Klebsiella pneumoniae 1000-02 values.
Tested on: Klebsiella pneumoniae 1000-02
Test: In vitro MIC, Klebsiella pneumoniae 1000-02
Type: cell-based
Conditions: strain 1000-02, resistant to cephalosporins
Reply with just the number (in µg/mL).

# example entries with known answers
{"Smiles": "C[C@@H](O)Cn1c(-c2cc(=O)c(O)c[nH]2)nn(S(=O)(=O)NC(=O)N2C[C@H](NC(=O)/C(=N\\OC(C)(C)C(=O)[O-])c3csc(N)n3)C2=O)c1=O.C[C@@H](O)Cn1c(-c2cc(=O)c(O)c[nH]2)nn(S(=O)(=O)NC(=O)N2C[C@H](NC(=O)/C(=N\\OC(C)(C)C(=O)[O-])c3csc(N)n3)C2=O)c1=O.[Na+].[Na+]", "MIC Klebsiella pneumoniae 1000-02, µg/mL": 500}
{"Smiles": "C[C@H](O)Cn1c(-c2cc(=O)c(O)c[nH]2)nn(S(=O)(=O)NC(=O)N2C[C@H](NC(=O)/C(=N\\OC(C)(C)C(=O)[O-])c3csc(N)n3)C2=O)c1=O.C[C@H](O)Cn1c(-c2cc(=O)c(O)c[nH]2)nn(S(=O)(=O)NC(=O)N2C[C@H](NC(=O)/C(=N\\OC(C)(C)C(=O)[O-])c3csc(N)n3)C2=O)c1=O.[Na+].[Na+]", "MIC Klebsiella pneumoniae 1000-02, µg/mL": 250}
{"Smiles": "CC(C)(O/N=C(\\C(=O)N[C@H]1CN(C(=O)NS(=O)(=O)n2nc(-c3cc(=O)c(O)c[nH]3)n(C[C@H](O)CO)c2=O)C1=O)c1csc(N)n1)C(=O)[O-].CC(C)(O/N=C(\\C(=O)N[C@H]1CN(C(=O)NS(=O)(=O)n2nc(-c3cc(=O)c(O)c[nH]3)n(C[C@H](O)CO)c2=O)C1=O)c1csc(N)n1)C(=O)[O-].[Na+].[Na+]", "MIC Klebsiella pneumoniae 1000-02, µg/mL": 500}

Now turn to the next molecule.
Asked: Entry CC(C)(O/N=C(\C(=O)N[C@H]1CN(C(=O)NS(=O)(=O)n2nc(-c3cc(=O)c(O)c[nH]3)n(C[C@@H](O)CO)c2=O)C1=O)c1csc(N)n1)C(=O)[O-].CC(C)(O/N=C(\C(=O)N[C@H]1CN(C(=O)NS(=O)(=O)n2nc(-c3cc(=O)c(O)c[nH]3)n(C[C@@H](O)CO)c2=O)C1=O)c1csc(N)n1)C(=O)[O-].[Na+].[Na+] : reported MIC Klebsiella pneumoniae 1000-02 = ?
Given back: 500
